CREATINE PHOSPHOKINASE: recorded values
species on record: Rattus norvegicus; assay: DrugMatrix - Regimen: Daily Repeat; assay type: toxicity, organism-based, Sprague-Dawley; parameters: regimen Daily Repeat, gender Male, age 6-8 weeks; conditions: in vivo, po, 0 mg/kg, 72 h, tissue Plasma, route oral GAVAGE, dose level Control, time 3 day, […]
Answer format: numeric, u/L implied, no suffix.

Answered cases to consult:
* CCCCC(=O)N(Cc1ccc(-c2ccccc2-c2nnn[nH]2)cc1)[C@H](C(=O)O)C(C)C | 284.33
* ClC(Cl)(Cl)Cl [CARBON TETRACHLORIDE] | 478.83
* CC(=O)Oc1ccccc1C(=O)O | 253.33

Prompt: Any idea what CREATINE PHOSPHOKINASE was measured for CCc1ccc(CCOc2ccc(CC3SC(=O)NC3=O)cc2)nc1 (stereo not drawn) ?
Completion: 345.67

Prompt: Any idea what CREATINE PHOSPHOKINASE was measured for CS(=O)(=O)Nc1ccc([N+](=O)[O-])cc1Oc1ccccc1 [NIMESULIDE] ?
Completion: 279.67

Prompt: Any idea what CREATINE PHOSPHOKINASE was measured for CC(C)c1c(C(=O)Nc2ccccc2)c(-c2ccccc2)c(-c2ccc(F)cc2)n1CC[C@@H](O)C[C@@H](O)CC(=O)O ?
Completion: 268.33

Prompt: Any idea what CREATINE PHOSPHOKINASE was measured for O=c1c(-c2ccc(O)cc2)coc2cc(O)cc(O)c12 ?
Completion: 268.33

Prompt: Any idea what CREATINE PHOSPHOKINASE was measured for Cc1ccc(C)c(OCCCC(C)(C)C(=O)O)c1 ?
Completion: 178.67

----------
organism: Rattus norvegicus; experiment: DrugMatrix - Regimen: Daily Repeat; assay type: toxicity, organism-based, Sprague-Dawley; design: regimen Daily Repeat, gender Male, age 6-8 weeks; details: in vivo, po, 0 mg/kg, 72 h, tissue Plasma, route oral GAVAGE, dose level Control, time 3 day, vehicle .5 % CMC
outcome-measure: ALKALINE PHOSPHATASE (u/L)
Answer format: numeric, u/L implied, no suffix.

* C[C@@](Cc1ccc(O)c(O)c1)(NN)C(=O)O.O | 398.83

Prompt: Any idea what ALKALINE PHOSPHATASE was measured for CN1C(=O)CN=C(c2ccccc2)c2cc([N+](=O)[O-])ccc21 ?
Completion: 411.83

Prompt: Any idea what ALKALINE PHOSPHATASE was measured for COc1ccc2c(c1OC)C(=O)O[C@@H]2[C@H]1c2c(cc3c(c2OC)OCO3)CCN1C ?
Completion: 388.17

Prompt: Any idea what ALKALINE PHOSPHATASE was measured for CCOc1nc2cccc(C(=O)O)c2n1Cc1ccc(-c2ccccc2-c2nnn[nH]2)cc1 ?
Completion: 391

Prompt: Any idea what ALKALINE PHOSPHATASE was measured for C[C@H]1[C@H](NC(=O)/C(=N\OC(C)(C)C(=O)O)c2csc(N)n2)C(=O)N1S(=O)(=O)O ?
Completion: 398.83

Prompt: Any idea what ALKALINE PHOSPHATASE was measured for C#C[C@]1(O)CC[C@H]2[C@@H]3CCC4=CC(=O)CC[C@]4(C)[C@H]3CC[C@@]21C ?
Completion: 388.17

----------
EOSINOPHIL: recorded values
species on record: Rattus norvegicus; assay: DrugMatrix - Regimen: Daily Repeat; type: toxicity, organism-based, Sprague-Dawley; design: regimen Daily Repeat, gender Male, age 6-8 weeks; conditions: in vivo, po, 0 mg/kg, 120 h, tissue Blood, route oral GAVAGE, dose level Control, time 5 day, vehicle .5 % CMC
Answer format: numeric, % implied, no suffix.

Answered cases to consult:
• C[C@]12CC[C@@H]3c4ccc(O)cc4CC[C@H]3[C@@H]1C[C@@H](O)[C@@H]2O [ESTRIOL] = 0.33
• CCCCC1=NC2(CCCC2)C(=O)N1Cc1ccc(-c2ccccc2-c2nnn[nH]2)cc1 [IRBESARTAN] = 1
• C#C[C@]1(O)CC[C@H]2[C@@H]3CCC4=CC(=O)CC[C@]4(C)[C@H]3CC[C@@]21C [ETHISTERONE] = 1

Prompt: Any idea what EOSINOPHIL was measured for C[C@H]1[C@H](NC(=O)/C(=N\OC(C)(C)C(=O)O)c2csc(N)n2)C(=O)N1S(=O)(=O)O [AZTREONAM] ?
Completion: 1

Prompt: Any idea what EOSINOPHIL was measured for C[C@@](Cc1ccc(O)c(O)c1)(NN)C(=O)O.O [CARBIDOPA] ?
Completion: 1

Prompt: Any idea what EOSINOPHIL was measured for COc1ccccc1[N+](=O)[O-] [2-NITROANISOLE] ?
Completion: 0.17

Prompt: Any idea what EOSINOPHIL was measured for CCCNC(=O)NS(=O)(=O)c1ccc(Cl)cc1 [CHLORPROPAMIDE] ?
Completion: 0

Prompt: Any idea what EOSINOPHIL was measured for CCOc1nc2cccc(C(=O)O)c2n1Cc1ccc(-c2ccccc2-c2nnn[nH]2)cc1 ?
Completion: 0.5

Prompt: Any idea what EOSINOPHIL was measured for CN1C(=O)CN=C(c2ccccc2)c2cc([N+](=O)[O-])ccc21 [NIMETAZEPAM] ?
Completion: 0.43

Prompt: Any idea what EOSINOPHIL was measured for COc1cc(OC)c(C(=O)CCCN2CCCC2)c(OC)c1 [BUFLOMEDIL] ?
Completion: 0.17

Prompt: Any idea what EOSINOPHIL was measured for CN1CCN(C2=Nc3cc(Cl)ccc3Nc3ccccc32)CC1 [CLOZAPINE] ?
Completion: 0

----------
HEMOGLOBIN: recorded values
species on record: Rattus norvegicus; assay: DrugMatrix - Regimen: Daily Repeat; assay type: toxicity, organism-based, Sprague-Dawley; set-up: regimen Daily Repeat, gender Male, age 6-8 weeks; details: in vivo, po, 0 mg/kg, 120 h, tissue Blood, route oral GAVAGE, dose level Control, time 5 day, vehicle 100 % WATER
Answer format: numeric, G/DL implied, no suffix.

- CCCC(C)C1(CC)C(=O)NC(=O)NC1=O (configuration not stated): 13.17
- CNC1=Nc2ccc(Cl)cc2C(c2ccccc2)=[N+]([O-])C1 [CHLORDIAZEPOXIDE]: 14.4
- NC12CC3CC(CC(C3)C1)C2: 14.48
- CN(C)C(=O)Oc1cccc([N+](C)(C)C)c1.[Br-] [NEOSTIGMINE BROMIDE]: 13.17
- O=c1[nH]c(=O)n(C2CCCO2)cc1F (configuration not stated): 14.1
- CN(C)CCC=C1c2ccccc2CCc2ccccc21: 14.48

Turning now to a further record.
Prompt: Any idea what HEMOGLOBIN was measured for CCN(C(C)=O)c1cccc(-c2ccnc3c(C#N)cnn23)c1 ?
Completion: 14.48

----------
species on record: Rattus norvegicus; experiment: DrugMatrix - Regimen: Daily Repeat; type: toxicity, organism-based, Sprague-Dawley; set-up: regimen Daily Repeat, gender Male, age 6-8 weeks; conditions: in vivo, po, 0 mg/kg, 72 h, tissue Plasma, route oral GAVAGE, dose level Control, time 3 day, vehicle .5 % CMC
outcome-measure: TOTAL BILIRUBIN (mg/dL)
Answer format: numeric, mg/dL implied, no suffix.

Prompt: Any idea what TOTAL BILIRUBIN was measured for C#C[C@]1(O)CC[C@H]2[C@@H]3CCC4=CC(=O)CC[C@]4(C)[C@H]3CC[C@@]21C [ETHISTERONE] ?
Completion: 0.48

Prompt: Any idea what TOTAL BILIRUBIN was measured for CN1C(=O)CN=C(c2ccccc2)c2cc([N+](=O)[O-])ccc21 [NIMETAZEPAM] ?
Completion: 0.57

Prompt: Any idea what TOTAL BILIRUBIN was measured for CN(C)C(=O)C(CCN1CCC(O)(c2ccc(Cl)cc2)CC1)(c1ccccc1)c1ccccc1 [LOPERAMIDE] ?
Completion: 0.15
